Source listed as PubChem BioAssay (Tox21).

experiment: qHTS assay to identify small molecule antagonists of the estrogen related receptor (ERR) signaling pathway from Tox21 library (AID 1224848); conditions: ERR reporter cell line, luciferase antagonist mode, 18 h; series mostly up to 92.4 µM; note: nearly all actives have a fitted effect of over 50% in size; note: potency is the fitted concentration of half-maximal effect
Records with an inconclusive call do not appear. Active and inactive are the calls of the source. Calls come from the whole dose curve; as a rule, active = well fitted inhibition curve with a large enough effect in the repeat runs; inconclusive = weak or mixed curves; inactive = no such curve, though single readings can be large or run the other way.
OBSERVED_PROPERTY: Potency

Some solved cases for reference:
Exercise: If you can, please state the reported Potency value of `CCCCNC(=O)NS(=O)(=O)c1ccc(C)cc1` .
Solution: inactive

Exercise: And `CCCCC1(COC(=O)CCC(=O)O)C(=O)N(c2ccccc2)N(c2ccccc2)C1=O` ?
Solution: inactive

Exercise: Thanks! And `CN(C)C(=O)Nc1ccc(Cl)c(Cl)c1` ?
Solution: inactive

Exercise: Now give it for `NS(=O)(=O)c1cc2c(cc1Cl)NCNS2(=O)=O` too.
Solution: inactive

Exercise: Queued: `CCN(Cc1c(F)cccc1Cl)c1c([N+](=O)[O-])cc(C(F)(F)F)cc1[N+](=O)[O-]`
Solution: 61.1 µM (active)

Exercise: Same question, `CCOc1ccc(NC(C)=O)cc1` this time
Solution: inactive

Exercise: Can you check `CCCCCCc1ccc(O)cc1O` next?
Solution: inactive

Exercise: Entry to check: CC(C)NCC(O)c1ccc(O)c(O)c1 (centres undefined)
Solution: inactive

Exercise: What about this molecule? `CCN(CC)C(=O)c1cccc(C)c1`
Solution: inactive

Exercise: Another molecule to check: C1=CC2C3C=CC(C3)C2C1 (centres undefined)
Solution: inactive

Continuing:
Exercise: Param item = `CS(=O)(=O)OCCCCOS(C)(=O)=O` ; retrieve measured Potency.
Solution: inactive

Exercise: Please give the result for `CC1(C)O[C@@H]2C[C@H]3[C@@H]4CCC5=CC(=O)C=C[C@]5(C)[C@@]4(F)[C@@H](O)C[C@]3(C)[C@]2(C(=O)CO)O1` too.
Solution: inactive

Exercise: Now try `Cc1ncc([N+](=O)[O-])n1C` .
Solution: inactive

Exercise: // same read-out, input: `O=S1(=O)OC(c2ccc(O)cc2)(c2ccc(O)cc2)c2ccccc21`
Solution: inactive

====

assay: qHTS assay to identify small molecule agonists of the TGF-beta/Smad signaling pathway - cell viability counter screen (AID 1346829); settings: SBE-bla HEK293T viability, CellTiter-Glo luminescence, 5 h; series mostly up to 76.8 µM; note: top concentration of the series differs between compounds; nearly all actives have a fitted effect of over 45% in size
Inconclusive results are not listed. Calls of active or inactive are those of the source. Calls follow the shape of the dose curve; as a rule, active = well fitted cell-killing curve with a large enough effect in the repeat runs; inconclusive = weak or mixed curves, or effect the other way; inactive = flat fitted curve, though single readings scatter.
OBSERVED_PROPERTY: outcome

Below are worked cases with known answers.
Exercise: Query: outcome; subject: `Nc1c(N=Nc2ccc(-c3ccc(N=Nc4cc(S(=O)(=O)O)c5ccccc5c4N)cc3)cc2)cc(S(=O)(=O)O)c2ccccc12`
Solution: inactive

Exercise: Now consider C1=CC2C3C=CC(C3)C2C1 (stereo unspecified) and answer again.
Solution: inactive

Exercise: Another molecule to look at: `NS(=O)(=O)c1cc2c(cc1Cl)NCNS2(=O)=O`
Solution: inactive

Exercise: Okay, and `CNNCc1ccc(C(=O)NC(C)C)cc1` ?
Solution: inactive

Exercise: Same lookup for `CCCCC1(COC(=O)CCC(=O)O)C(=O)N(c2ccccc2)N(c2ccccc2)C1=O` , please.
Solution: inactive

# evaluate next
Exercise: Returns the measured outcome for the input molecule. Input: `CN(C)C(=O)Nc1ccc(Cl)c(Cl)c1`
Solution: inactive
